compounds and their reported pIC50
Molecular target: MCR-1 (Homo sapiens, UniProt Q01726)
Construct: expressed in transfected cells; host or cells: HEK 293
Sequence (Q01726 whole entry): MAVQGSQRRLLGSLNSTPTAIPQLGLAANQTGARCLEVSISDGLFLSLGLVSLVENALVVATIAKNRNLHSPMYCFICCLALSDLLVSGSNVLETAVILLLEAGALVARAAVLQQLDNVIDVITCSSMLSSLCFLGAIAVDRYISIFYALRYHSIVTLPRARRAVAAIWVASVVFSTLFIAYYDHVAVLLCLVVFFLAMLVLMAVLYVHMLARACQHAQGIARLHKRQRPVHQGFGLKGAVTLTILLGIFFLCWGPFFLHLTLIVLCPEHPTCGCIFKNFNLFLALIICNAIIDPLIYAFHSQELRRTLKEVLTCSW
Experiment: Melanocortin receptor binding assay, competition with 125I-HP 467, HEK 293 cells expressing hMCR-1
Details: TRG 2408 and TRG 2409 libraries; inhibition of 125I-HP 467 binding; read-out: MC-1 IC50
Remember, pIC50 is on a log scale: it is -log10 of the molar concentration.

Below, 6 compounds whose answers are already recorded.
> print(dat)
                                   compound  metric.name  recorded.result
1  NCC(CCN1Cc2ccccc2C(CNC2CCCCC2)C1c1ccc(Cl)cc1Cl)NCCc1ccccc1 (mixture of isomers) [TRG 2408-102]        pIC50             5.15
2  CNC(CN)CCCN1Cc2ccccc2C(CNC2CCCCC2)C1c1ccc(Cl)cc1Cl (stereo not shown) [TRG 2408-70]        pIC50             5.84
3  NCCNC(CN)CCCCN1Cc2ccccc2C(CNC2CCCCC2)C1c1ccc(Cl)cc1Cl (stereo not shown) [TRG 2408-15]        pIC50             6.12
4  CCNc1ccc(C2C(CNCc3ccccc3O)c3ccccc3CN2CCCC(CN)NCCc2ccccc2)cc1 (stereo not shown) [TRG 2408-57]        pIC50             6.55
5  NCC(N)CCCN1Cc2ccccc2C(CNC2CCCCC2)C1c1ccc(Cl)cc1Cl (stereo not shown) [TRG 2408-71]        pIC50             5.92
6  CCNc1ccc(C2C(CNC3CCCCC3)c3ccccc3CN2CCCCC(N)CN)cc1 (stereo not shown) [TRG 2408-5]        pIC50             5.78

Now consider the entry below.
Suppose we examine the compound CNC(CN)CCCN1Cc2ccccc2C(CNC2CCCCC2)C1c1ccc(-c2ccccc2)cc1 (stereo not shown) [TRG 2408-80] ; what pIC50 value has been reported?
5.66

----------
Catalogue of molecules with associated IC50
Target: MCR-4 (Homo sapiens, UniProt P32245)
Construct: expressed in transfected cells; host or cells: HEK 293
Sequence (P32245 whole entry): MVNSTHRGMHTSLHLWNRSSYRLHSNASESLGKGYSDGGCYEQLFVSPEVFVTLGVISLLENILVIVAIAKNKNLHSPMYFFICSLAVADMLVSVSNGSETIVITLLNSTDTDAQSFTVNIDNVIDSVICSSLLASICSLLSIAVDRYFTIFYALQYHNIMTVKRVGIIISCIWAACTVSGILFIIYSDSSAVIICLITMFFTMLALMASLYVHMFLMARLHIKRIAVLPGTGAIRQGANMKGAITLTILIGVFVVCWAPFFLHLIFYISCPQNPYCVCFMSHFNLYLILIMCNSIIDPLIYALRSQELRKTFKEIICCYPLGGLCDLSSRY
Assay: Melanocortin receptor binding assay, competition with 125I-HP 467, HEK 293 cells expressing hMCR-4
Conditions: TRG 2414 library; inhibition of binding of 125I-HP 467, HEK 293 cells expressing MCR-4; read-out: MC-4 IC50
Give the value in µM but do not write µM after it.

Example cases with answers are listed next.
> print(dat)
                                   molecule  recorded.result
1  COc1cccc(CNCC2c3ccccc3CN(CCCCC(N)CN)C2c2ccccc2Br)c1 (centres unmarked)             2.42
2  COc1ccc(CNCC2c3ccccc3CN(CCCCC(CN)NCc3ccccc3)C2c2ccccc2Br)cc1 (centres unmarked)             8.22
3  CC(C)Cc1ccc(C(C)CNC(CN)CCCCN2Cc3ccccc3C(CNCc3ccccc3)C2c2ccccc2Br)cc1 (centres unmarked)             23.4
4  CCCOc1ccc(C2C(CNCCc3ccc(OC)cc3)c3ccccc3CN2CCCCC(N)CN)cc1 (centres unmarked)             4.26

I have this molecule here, NCC(CCCCN1Cc2ccccc2C(CNCCc2cccc(Cl)c2)C1c1ccccc1Br)NCCc1ccccc1 (centres unmarked) , and I need its recorded IC50.
4.76

Here is the next molecule: CCOc1ccccc1CNCC1c2ccccc2CN(CCCCC(CN)NCc2ccccc2)C1c1ccccc1Br (centres unmarked)
6.43

Thanks! And CCOc1ccccc1CNCC1c2ccccc2CN(CCCCC(CN)NCC(C)c2ccc(CC(C)C)cc2)C1c1ccccc1Br (centres unmarked) ?
21.1

Record: COc1ccc(CCNCC2c3ccccc3CN(CCCCC(CN)NCC(C)c3ccc(CC(C)C)cc3)C2c2ccccc2Br)cc1 (centres unmarked)
8.79

----------
Target: MCR-1 (Homo sapiens, UniProt Q01726)
Construct: expressed in transfected cells; host or cells: HEK 293
Test: Melanocortin receptor binding assay, competition with 125I-HP 467, HEK 293 cells expressing hMCR-1
Conditions: inhibition of binding of 125I-HP 467, HEK 293 cells expressing MCR-1; TRG 2414 library; read-out: MC-1 IC50
metric-name: pIC50
Please note pIC50 is a logarithmic value: minus log10 of concentration in mol/L. Answer with that number alone.

These solved cases illustrate the format of a correct answer.
> print(dat)
                                   compound  recorded.result
1  NCC(CCCCN1Cc2ccccc2C(CNC2CCCCCC2)C1c1cccc(Oc2ccccc2)c1)NCCc1ccccc1 (stereo not shown)             5.05
2  CCOc1ccccc1CNCC1c2ccccc2CN(CCCCC(CN)NCCc2ccccc2)C1c1cc(C(F)(F)F)cc(C(F)(F)F)c1 (stereo not shown)             5.18
3  COc1ccccc1CCNCC1c2ccccc2CN(CCCCC(CN)NCC(C)c2ccc(CC(C)C)cc2)C1c1cc(C(F)(F)F)cc(C(F)(F)F)c1 (mixture of isomers)             4.66
4  COc1ccc(CNCC2c3ccccc3CN(CCCCC(CN)NCCc3ccccc3)C2c2cc(C(F)(F)F)cc(C(F)(F)F)c2)cc1 (stereo not shown)             4.81

Field request: pIC50 | item: CCOc1ccccc1CNCC1c2ccccc2CN(CCCCC(CN)NCC(C)c2ccc(CC(C)C)cc2)C1c1ccc(Oc2ccccc2)cc1 (mixture of isomers)
4.60

Can you handle CC(C)Cc1ccc(C(C)CNC(CN)CCCCN2Cc3ccccc3C(CNC3CCCCCC3)C2c2cccc(Oc3ccccc3)c2)cc1 (stereo not shown) next?
4.27

What about CCCOc1ccc(C2C(CNCc3cccc(OC)c3)c3ccccc3CN2CCCCC(CN)NCCc2ccccc2)cc1 (stereo not shown) ?
5.66

----------
Biological target: MCR-4 (Homo sapiens, UniProt P32245)
Construct: expressed in transfected cells; host or cells: HEK 293
Assay: Melanocortin receptor binding assay, competition with 125I-HP 467, HEK 293 cells expressing hMCR-4
Conditions: competition with 125I-HP 467, HEK 293 cells expressing MCR-4; read-out: MC-4 IC50
metric-name: pIC50
Give only the number. pIC50 is defined as minus log10 of concentration in molar units.

Known results for compounds:
> print(dat)
                                   compound  recorded.result
1  CNC(CN)CCCCN1Cc2ccccc2C(CNC2CCCCC2)C1c1ccc(NCC2CCCCC2)cc1 (stereo not shown) [TRG 2409-15]             4.79
2  NCC(CCCCN1Cc2ccccc2C(CNC2CCCCC2)C1c1ccc(-c2ccccc2)cc1)NCC1CCCCC1 (stereo not shown) [TRG 2411-21]             6.00
3  CNC(CN)CCCCN1Cc2ccccc2C(CNC2CCCCC2)C1c1ccc(NCCc2ccc(OC)cc2)cc1 (stereo not shown) [TRG 2409-21]             4.83

Now take the following compound into account.
# input compound: CCCCNc1ccc(C2C(CN)c3ccccc3CN2CCCCC(CN)NCCc2ccccc2)cc1 (stereo not shown) [TRG 2411-104] ; wanted: its pIC50
6.23

----------
Molecular target: MCR-1 (Homo sapiens)
Construct: expressed in transfected cells; host or cells: HEK 293
Experiment: Melanocortin receptor binding assay, competition with 125I-HP 467, HEK 293 cells expressing hMCR-1
Conditions: displacement of 125I-HP 467 at 10 μM isoquinoline compound; first of duplicate
metric-name: % Disp. MC-1 10 μM (%)
Response body: numeric value in %, unit text excluded.

> print(dat)
                                   compound  recorded.result
1  CNC(CN)CN1Cc2ccccc2C(CNC2CCCCC2)C1c1ccc(OC)c2ccccc12 (stereo not drawn)             45.6
2  CNC(CN)CN1Cc2ccccc2C(CNC2CCCCC2)C1c1cccc(C)n1 (stereo not drawn)             63.1
3  CNC(CN)CN1Cc2ccccc2C(CNC2CCCCC2)C1c1ccc(C(C)C)cc1 (stereo not drawn)             56.4
4  NCCN1Cc2ccccc2C(CNC2CCCCC2)C1c1c(F)cccc1F (stereo not drawn)             45.1
5  CN(C)CCCOc1ccc(C2C(CNC3CCCCC3)c3ccccc3CN2CCN)cc1 (stereo not drawn)              1.3

Bench note: what % Disp. MC-1 10 μM did NCCN1Cc2ccccc2C(CNC2CCCCC2)C1c1cccs1 (stereo not drawn) show?
43

Another: NCCN1Cc2ccccc2C(CNC2CCCCC2)C1c1ccc([N+](=O)[O-])o1 (stereo not drawn)
30.8

Now the same for CNC(CN)CN1Cc2ccccc2C(CNC2CCCCC2)C1c1cccc(C(F)(F)F)c1 (stereo not drawn)
59.1

Do the same for CNC(CN)CN1Cc2ccccc2C(CNC2CCCCC2)C1c1c(F)cccc1Cl (stereo not drawn) please
32.8
